- protocol.notes: qHTS assay to identify small molecule agonists of the estrogen receptor alpha (ER-alpha) signaling pathway in the presence of an antagonist - cell viability counter screen (AID 1259386);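 note: cells exposed to compounds for 22 h at 37 °C before the viability read; % is set by controls: 0 for no effect and ±100 for the full control effect; nearly all actives have a fitted effect of over 30% in size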
- details: VM7Luc4E2 viability, CellTiter-Fluor fluorescence, 22 h; series mostly up to 92.4 µM
Inconclusive results are not listed. The source made the active and inactive calls. Calls come from the whole dose curve; as a rule, active = well fitted cell-killing curve with a large enough effect in the repeat runs; inconclusive = weak or mixed curves, or effect the other way; inactive = no such curve, though single readings can be large or run the other way.
# valid calls are 1.0 for active, 0.0 for inactive; nothing else

The examples below pair each entry with its known result.
{"columns": ["compound", "class"],
 "data": [
  ["CCn1nc(Cc2ccccc2)cc1C1CCN(C[C@H]2C[C@H](N(C)[C@@H](C(=O)O)C(C)C)C[C@@H]2c2cccc(F)c2)CC1", 0.0],
  ["O=C1OC(=O)C2CC=CCC12 (stereo unspecified)", 0.0],
  ["COc1ccc(C(=O)Nc2ccccc2)cc1[N+](=O)[O-]", 0.0],
  ["C[C@@H](O)[C@H]1C(=O)N2C(C(=O)O)=C(S[C@@H]3CN[C@H](CNS(N)(=O)=O)C3)[C@H](C)[C@H]12", 0.0]
]}

*Q* Short answer needed: outcome of this test for "COc1cc(CNC(=O)CCCC/C=C/C(C)C)ccc1O" ?
*A* 0.0

*Q* Now the same for "CC(C)Cc1nccs1"
*A* 0.0

*Q* Now the same for C/C(=C\C(C)CC(C)CC(C)C)C1CC(=O)OC1=O (stereo unspecified)
*A* 0.0

*Q* Now the same for "CCOC(OCC)OCC"
*A* 0.0

---

- measured.on: Nuclear receptor subfamily 1 group I member 2 (Homo sapiens)
- protocol.notes: Human pregnane X receptor (PXR) small molecule agonists, qHTS assay (AID 1346982); note: nearly all actives have a fitted effect of over 35% in size; note: potency is the fitted concentration of half-maximal effect; for activation: % is set by controls: 0 for no effect and ±100 for the full control effect
- details: PXR-Luc HepG2, CYP3A4 luciferase reporter, 24 h; series mostly up to 92.4 µM
Records with an inconclusive call do not appear. The source made the active and inactive calls. Calls follow the shape of the dose curve; as a rule, active = well fitted activation curve with a large enough effect in the repeat runs; inconclusive = weak or mixed curves; inactive = no such curve, though single readings can be large or run the other way.
experimental.readout: Potency

{"columns": ["compound", "Potency"],
 "data": [
  ["c1ccc(CN(Cc2ccccc2)Cc2ccccc2)cc1", "30.6 µM (active)"],
  ["CCCCCO", "inactive"],
  ["O=C(O)c1cc(C(=O)O)c(C(=O)O)cc1C(=O)O", "inactive"],
  ["CCCCCCCCS", "inactive"]
]}

*Q* // lookup Potency for FC1(F)C(F)(F)C(F)(F)C2(F)C(F)(C1(F)F)C(F)(F)C(F)(F)C1(F)C(F)(F)C(F)(F)C(F)(F)C(F)(F)C12F (centres undefined)
*A* inactive

*Q* Now the same for "CC(C)(C)c1cc(C=O)cc(C(C)(C)C)c1O"
*A* inactive

---

- protocol.notes: qHTS assay to identify small molecule agonists of the TGF-beta/Smad signaling pathway (AID 1346859); note: % is set by controls: 0 for no effect and ±100 for the full control effect
- details: SBE-bla HEK293T, TGF-beta/Smad beta-lactamase reporter, 5 h; series mostly up to 76.8 µM
Records with an inconclusive call do not appear. Active and inactive are the calls of the source. Calls follow the shape of the dose curve; as a rule, active = well fitted activation curve with a large enough effect in the signal ratio in the repeat runs (not every such curve was filed as active); inconclusive = weak or mixed curves; inactive = flat fitted curve, though single readings scatter; the % refers to the signal ratio.
experimental.readout: activation

Check out these entries, answers already filled in.
{"columns": ["molecule", "activation"],
 "data": [
  ["CCOc1ccccc1O", "inactive"],
  ["C(/C=C/C=C/Nc1ccccc1)=Nc1ccccc1", "inactive"],
  ["CC(C)C[C@H](NC(=O)[C@H](Cc1ccccc1)NC(=O)c1cnccn1)B(O)O", "inactive"],
  ["CCOC(=O)CC(O)(CC(=O)OCC)C(=O)OCC", "inactive"]
]}

*Q* // lookup activation for "CC[C@H](NC(C)C)[C@H](O)c1ccc(O)c2[nH]c(=O)ccc12"
*A* inactive

*Q* Now the same for CC(CC(C#N)(c1ccccc1)C(C)C)N(C)C (stereo not given)
*A* inactive

*Q* Now the same for "O=C(Cl)c1cc(Cl)cc(Cl)c1"
*A* inactive

*Q* Now the same for "CC(=O)Nc1ccccc1O"
*A* inactive

*Q* Now the same for "O=C(O)c1cccnc1Nc1cccc(C(F)(F)F)c1"
*A* inactive

*Q* Now the same for "CO[C@@H]1[C@@H](O[C@@H]2O[C@H](C)[C@@H](O[C@H]3C[C@@](C)(O)[C@@H](O)[C@H](C)O3)[C@H](N(C)C)[C@H]2O)[C@@H](CC=O)C[C@@H](C)[C@@H](O[C@@H]2CC[C@H](N(C)C)[C@@H](C)O2)/C=C/C=C/C[C@@H](C)OC(=O)C[C@H]1OC(C)=O"
*A* inactive

---

- protocol.notes: qHTS assay to identify small molecule antagonists of the thyroid receptor (TR) signaling pathway - cell viability counter screen (AID 743064); note: % is set by controls: 0 for no effect and ±100 for the full control effect; nearly all actives have a fitted effect of over 50% in size
- details: GH3.TRE-Luc viability, CellTiter-Fluor, 24 h; series mostly up to 70.3 µM
Results filed as inconclusive are left out. Active and inactive are the calls of the source. Calls come from the whole dose curve; as a rule, active = well fitted cell-killing curve with a large enough effect in the repeat runs; inconclusive = weak or mixed curves, or effect the other way; inactive = no such curve, though single readings can be large or run the other way.
# valid calls are YES (active), NO (inactive); nothing else

*Q* Short answer needed: outcome of this test for "CCOC(OCC)OCC" ?
*A* NO

*Q* Now the same for "CC(C)=CCC[C@H](C)CCO"
*A* NO

*Q* Now the same for "C=C(C)C(=O)OCCCCCCCCCCOC(=O)C(=C)C"
*A* NO

*Q* Now the same for "O=C1CCCN1CCO"
*A* NO

*Q* Now the same for "CC(C)(C)N"
*A* NO

*Q* Now the same for "O=C(O)CCc1nc2ccccc2[nH]1"
*A* NO

*Q* Now the same for "CCc1ccc2c(c1)C(=O)c1ccccc1C2=O"
*A* NO

*Q* Now the same for N#C[C@@H]1CC(F)(F)CN1C(=O)CNC1CC2CCC(C1)N2c1ncccn1 (stereo partly specified)
*A* NO

*Q* Now the same for "Cc1cccc(C)c1NC(=O)CN1CCCC1"
*A* NO

*Q* Now the same for "Cc1cc(C)n(CO)n1"
*A* NO

*Q* Now the same for CCCCCC1CCC(=O)O1 (stereo unspecified)
*A* NO

*Q* Now the same for "O=C(Nc1ccc2c(c1)Cc1ccccc1-2)C(F)(F)F"
*A* NO

*Q* Now the same for C=CC(C)CCC=C(C)C (stereo unspecified)
*A* NO

*Q* Now the same for "CC(=O)CC/C=C(\C)CC/C=C(\C)CC/C=C(\C)CCC=C(C)C"
*A* NO

---

- measured.on: Estrogen receptor (Homo sapiens) (UniProt P03372)
- Sequence (P03372 whole entry, looked up): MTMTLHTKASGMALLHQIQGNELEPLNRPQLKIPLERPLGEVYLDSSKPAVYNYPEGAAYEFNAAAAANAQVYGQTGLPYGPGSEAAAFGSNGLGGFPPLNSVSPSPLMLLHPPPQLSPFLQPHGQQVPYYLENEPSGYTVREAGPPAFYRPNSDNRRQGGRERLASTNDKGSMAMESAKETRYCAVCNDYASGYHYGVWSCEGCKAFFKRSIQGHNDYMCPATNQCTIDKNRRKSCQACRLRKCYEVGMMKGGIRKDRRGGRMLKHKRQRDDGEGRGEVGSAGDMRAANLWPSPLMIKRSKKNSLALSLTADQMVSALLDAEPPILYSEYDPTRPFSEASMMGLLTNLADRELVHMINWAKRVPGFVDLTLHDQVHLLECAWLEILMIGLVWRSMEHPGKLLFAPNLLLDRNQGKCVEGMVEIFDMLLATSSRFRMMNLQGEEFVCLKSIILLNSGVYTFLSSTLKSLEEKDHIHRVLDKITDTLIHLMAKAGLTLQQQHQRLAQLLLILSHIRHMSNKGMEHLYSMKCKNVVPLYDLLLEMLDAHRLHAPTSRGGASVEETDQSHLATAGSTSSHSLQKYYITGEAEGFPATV
- protocol.notes: qHTS assay to identify small molecule antagonists of the estrogen receptor alpha (ER-alpha) signaling pathway using the BG1 cell line in the presence of 0.1 nM 17-beta-estradiol (AID 1259244); note: % is set by controls: 0 for no effect and ±100 for the full control effect; nearly all actives have a fitted effect of over 50% in size
- details: VM7Luc4E2 (BG1) ERE-luciferase, antagonist mode, 0.1 nM E2, 22 h; series mostly up to 92.4 µM
Inconclusive results are not listed. The source made the active and inactive calls. Calls follow the shape of the dose curve; as a rule, active = well fitted inhibition curve with a large enough effect in the repeat runs; inconclusive = weak or mixed curves; inactive = no such curve, though single readings can be large or run the other way.
experimental.readout: activity change, negative = inhibition

{"columns": ["given.smiles", "activity change, negative = inhibition"],
 "data": [
  ["CC1(C)[C@@H]2CC[C@]3(C2)[C@@H]1C(=O)CCC3(C)C", "inactive"],
  ["O=P(c1ccccc1)(c1ccccc1)c1ccccc1", "inactive"],
  ["C[C@@H](O)[C@H]1C(=O)N2C(C(=O)O)=C(S[C@@H]3CN[C@H](CNS(N)(=O)=O)C3)[C@H](C)[C@H]12", "inactive"],
  ["CCC(CC)C(=O)O", "inactive"],
  ["CC(=O)c1ccc(Cl)c(Cl)c1Cl", "inactive"]
]}

*Q* // lookup activity change, negative = inhibition for "O=C(Cl)c1cc(Cl)cc(Cl)c1"
*A* inactive

*Q* Now the same for "CCc1ccc2c(c1)C(=O)c1ccccc1C2=O"
*A* inactive

*Q* Now the same for "O=C(O)c1ccc2c(c1)nc(C(=O)NC1CCN(C3CC3)CC1)n2Cc1cc(-c2ccc(Cl)s2)on1"
*A* -4.46% [at 19 µM] (inactive)

*Q* Now the same for "CCCCCCOC(=O)c1ccccc1"
*A* inactive

---

- protocol.notes: qHTS assay to identify small molecule antagonists of the progesterone receptor (PR) signaling pathway - cell viability counter screen (AID 1346798); note: nearly all actives have a fitted effect of over 50% in size
- details: PR-UAS-bla HEK293T viability, CellTiter-Glo luminescence, 16 h; series mostly up to 92.4 µM
Inconclusive results are not listed. Calls of active or inactive are those of the source. Calls follow the shape of the dose curve; as a rule, active = well fitted cell-killing curve with a large enough effect in the repeat runs; inconclusive = weak or mixed curves, or effect the other way; inactive = no such curve, though single readings can be large or run the other way.
# valid calls are active, inactive; nothing else

{"columns": ["molecule", "class"],
 "data": [
  ["O=C1c2ccccc2C(=O)C1c1ccc2cc(S(=O)(=O)O)cc(S(=O)(=O)O)c2n1", "active"],
  ["CC(C)NC(=O)c1ccccc1N", "inactive"],
  ["Cc1ccc(NC=O)c(C)c1", "inactive"],
  ["CC/C=C/CCO", "active"],
  ["CC(C)(C(=O)O)c1ccc(C(O)CCCN2CCC(C(O)(c3ccccc3)c3ccccc3)CC2)cc1 (stereo not drawn)", "inactive"]
]}

*Q* Short answer needed: outcome of this test for "CC1(C)[C@@H]2CC[C@]3(C2)[C@@H]1C(=O)CCC3(C)C" ?
*A* inactive

*Q* Now the same for "C/C=C1\[C@H]2C=C(C)C[C@]1(N)c1ccc(=O)[nH]c1C2"
*A* inactive

*Q* Now the same for CCC1=C(C)CN(C(=O)NCCc2ccc(S(=O)(=O)NC(=O)NC3CCC(C)CC3)cc2)C1=O (stereo not drawn)
*A* inactive

*Q* Now the same for N#C[C@@H]1CC(F)(F)CN1C(=O)CNC1CC2CCC(C1)N2c1ncccn1 (stereo partly drawn)
*A* inactive

*Q* Now the same for "CO[C@@H]1COCC[C@@H]1N[C@@H]1CC[C@@](C(=O)N2CCc3ncc(C(F)(F)F)cc3C2)(C(C)C)C1"
*A* inactive

*Q* Now the same for "CC[C@H](NC(C)C)[C@H](O)c1ccc(O)c2[nH]c(=O)ccc12"
*A* inactive

*Q* Now the same for "CCOC(OCC)OCC"
*A* inactive

Reference source: PubChem BioAssay (Tox21)
